system: HOP-62 NSCLC; test: NCI tumour cell line growth inhibition, 48 h
observable: TGI

Prompt: For Cc1c(CNc2ccc(Cl)c(Cl)c2Cl)cnc2nc(N)nc(N)c12 , what is its reported TGI?
Completion: > 43.5 µM

Prompt: Try O=C(c1ccccc1)N1N=C(C(F)(F)F)CC1(O)C(F)(F)F (centres undefined) next.
Completion: > 100 µM

Prompt: What do you get for CC1(C)N=C(N)N=C(N)N1c1cccc(CC(=O)Nc2ccccc2)c1 ?
Completion: > 100 µM

Prompt: Another molecule: COC(=O)[C@@H](N1C(=O)c2ccccc2C1=O)C1(C)CC(Cl)=NO1 (some centres undefined)
Completion: 38.9 µM

Prompt: Now try COC(=O)c1c(O)ccc2c1c1c(n2CCc2ccccc2)C(=O)c2ccccc2C1 .
Completion: 52.3 µM

Prompt: Query CC1(C)OC2OC(/C=C/[N+](=O)[O-])C3OC(C)(C)OC3C2O1 (centres undefined) next
Completion: 38.3 µM

Prompt: Next molecule up: COc1cccc(O)c1-c1cc(=O)c2c(O)c(OC)c(OC)c(OC)c2o1
Completion: 44.4 µM

Prompt: Likewise for COC(=O)[C@@H](C)C[C@H](Cc1ccccc1)NC(=O)c1nc([C@@H](C[C@H](C(C)C)N(C)C(=O)[C@@H](NC(=O)[C@H]2CC(=O)CCN2C)C(C)C)OC(C)=O)sc1C(C)C ?
Completion: > 16.7 µM

Prompt: Repeat with CN(C)CCCn1c2c(c3ccc(N4CCNCC4)cc3c1=O)C(=O)c1ccccc1-2
Completion: 2.64 µM

Prompt: Ok, now C#CC[C@]12CC(=O)CC[C@H]1CC1(C2)OCCO1
Completion: > 100 µM

Prompt: Now try COC1=C(OC)C(=O)c2cc(C)c(=O)c(C)cc2C1=O .
Completion: 36.6 µM

Prompt: And what about the molecule O=C1/C(=C/c2ccc(Cl)cc2)NC(=S)N1CN1CCCCC1 ?
Completion: > 100 µM

Prompt: Try Cc1cc(C)c(CNC(=O)c2cc(Cl)c3c(c2C)O[C@@](C)(C2CCC(N(C)C)CC2)O3)c(=O)[nH]1 (some centres undefined) next.
Completion: > 100 µM

Prompt: Entry to check: COc1cc(-c2nn(-c3cccc(NC(=O)NCCNC(=O)c4ccccc4)c3)cc2-c2ccncc2)ccc1Cl
Completion: > 100 µM

Prompt: Try this molecule next: COc1cc(Nc2nc(NS(=O)(=O)c3cc(C)c(Cl)cc3S)n[nH]2)cc(OC)c1OC
Completion: > 100 µM

Prompt: Now consider CC(C)c1c(C(=O)Nc2ccccc2)c(-c2ccccc2)c(-c2ccc(F)cc2)n1CC[C@@H](O)C[C@@H](O)CC(=O)O .
Completion: > 100 µM

Prompt: Same again, this time with COc1ccc(Cc2c3cc(OC)c(OC)cc3cc[n+]2C)cc1
Completion: > 48.7 µM

Prompt: Consider next the molecule O=c1cc(O)c1=O in the same way.
Completion: > 100 µM

Prompt: Okay, and Cc1n[nH]c(C)c1-c1c(C)n[nH]c1C ?
Completion: 9.11 µM

====

test system: RXF 393 renal; experiment: NCI tumour cell line growth inhibition, 48 h; in the data active means GI50 below about 0.43 µM; inactive means the rest
Hello, when you answer, please use one of the following outcomes: 1 (yes) = active, 0 (no) = inactive

Prompt: # fetch the recorded call for CC(C)c1c(C(=O)Nc2ccccc2)c(-c2ccccc2)c(-c2ccc(F)cc2)n1CC[C@@H](O)C[C@@H](O)CC(=O)O here
Completion: 0 (no)

Prompt: And for Cc1n[nH]c(C)c1-c1c(C)n[nH]c1C ?
Completion: 0 (no)

Prompt: Same read-out for N#CCC1CCN(c2nc(Nc3ccc(N4CCC(O)CC4)cc3)c3c(=O)[nH]ncc3n2)CC1 ?
Completion: 1 (yes)

Prompt: Record: CCn1nc(C#Cc2c(C)ccc3c(Nc4ccc(Cl)cc4)nccc23)c2c(N)ncnc21
Completion: 0 (no)

Prompt: Now this one: CCN(CC)c1ccc(C=C2C(=O)NC(=S)NC2=O)cc1
Completion: 0 (no)

Prompt: Next compound up: O=c1c2cc(F)ccc2sc2c(NCCCNCCO)nc3ccc(F)cc3c12
Completion: 0 (no)

Prompt: CC(=O)Nc1ccc(S(=O)(=O)N2C(=O)CCC2C(=O)Nc2ccccc2)cc1 (configuration not stated) ?
Completion: 0 (no)
